Reported fold change values follow for various compounds
assay: survival after telomere uncapping, modulators, primary screen, cell-based (AID 1259312);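 note: virus expresses mutant telomerase RNA that uncaps telomeres and kills cells; compound added 2 days after infection so exposure lasts 3 days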
testSettings: HCT116 + Ad-hTR-mut, MTT, 5 d; at 10 µM, active compounds read high
In all, about 4,500 compounds went through this assay and about 200 (4.4%) were called active. The sample as a whole holds a higher share of actives than the screen did.
Write the value as a bare number.

Example compounds with recorded fold change:
Problem: State the recorded fold change for this entry: CC(N)c1nc(-c2cccnc2)no1 (configuration not stated)
Result: -2.47

Problem: State the recorded fold change for this entry: O=[N+]([O-])c1ccccc1NC1CCCCC1
Result: 1.67

Problem: State the recorded fold change for this entry: O=c1[nH]c2ccccc2[nH]c1=O
Result: 5

Problem: State the recorded fold change for this entry: COc1ccc2[nH]c(=O)c(=O)[nH]c2c1
Result: 1.16

More entries:
Problem: State the recorded fold change for this entry: O=[N+]([O-])c1ccc(Cl)cc1NCc1ccco1
Result: -1.31

Problem: State the recorded fold change for this entry: CC(C)NC(=O)C(=O)NC1CC(C)(C)NC(C)(C)C1
Result: -2.38

Problem: State the recorded fold change for this entry: NNc1cc(Cl)ccc1[N+](=O)[O-]
Result: 3.68
